- System: MES-SA
- Experiment Description: p-Histone H3 assay (ArrayScan VTi)
- Type: cell-based
- Experimental Context: Homo sapiens, 24 h, Uterine, Parent line
Metric Name: pEC50
Units for pEC50: none; it is -log10 of a concentration expressed in mol/L.

Recorded result, CC(=O)O[C@H]1C(=O)[C@@]2(C)[C@H]([C@H](OC(=O)c3ccccc3)[C@]3(O)C[C@H](OC(=O)[C@H](O)[C@@H](NC(=O)c4ccccc4)c4ccccc4)C(C)=C1C3(C)C)[C@]1(OC(C)=O)CO[C@@H]1C[C@@H]2O [Paclitaxel, reference compound] , pEC50: 8.00

###

- Tested on: NCI-H460 PTX paclitaxel resistant
- Experiment Description: p-histone H3 fluorescence-based cell imaging assay
- Set-up: species or system human
- Experimental Context: NCI-H460 PTX paclitaxel resistant, P-gp +
- Method: All high-content cell assays were performed on an ArrayScan VTi HCS Reader (Cellomics). Tumor cell lines were treated with AMG 900, AZD1152, MK-0457, or PHA-739358 (concentration range varied based on potency). The cells were prepared for intracellular staining with an anti-p-histone H3 Ser^10 antibody as previously described (1). […] The cellular levels of p-histone H3 were analyzed using Target Activation V2 algorithm (Cellomics) to determine the percentage of positive cells. […]
Metric Name: pIC50
Scale for pIC50: -log10 of concentration given in mol/L; no unit attached.

GET /value?item= Cc1cc(Nc2cc(N3CCN(C)CC3)nc(Sc3ccc(NC(=O)C4CC4)cc3)n2)n[nH]1 &field=pIC50 returns 6.33

###

- Test system: SW620
- Experiment Description: Antiproliferative assay (ArrayScan VTi)
- Format: cell-based
- Experimental Context: Homo sapiens, SW-620; SW620 (Colon); 24 h treatment, then 48 h without compound
Metric Name: EC50 (nM)
Could you give me the number in nM? Just the number is fine.

EC50 reported for this compound Cc1csc(-c2nnc(Nc3ccc(Oc4ncccc4-c4ccnc(N)n4)cc3)c3ccccc23)c1 [AMG 900] : 2

###

Form field: EC50 (one value per entry).
- Test system: SNU499
- Experiment Description: Cellular EC50, additional cell lines (Table 6-B)
- Assay type: cell-based
- Experimental Context: Homo sapiens, Liver, P-gp+

Illustrative cases are given below, each with its answer.
>  <Compound String>
CCN(CCCOc1ccc2c(Nc3cc(CC(=O)Nc4cccc(F)c4)n[nH]3)ncnc2c1)CCOP(=O)(O)O

>  <EC50>
> 1250 nM

$$$$
>  <Compound String>
Cc1csc(-c2nnc(Nc3ccc(Oc4ncccc4-c4ccnc(N)n4)cc3)c3ccccc23)c1

>  <EC50>
2 nM

$$$$

In plain terms, CO[C@@H](C(=O)N1Cc2n[nH]c(NC(=O)c3ccc(N4CCN(C)CC4)cc3)c2C1)c1ccccc1 has a documented EC50 of > 1250 nM

###

- Test system: three matched taxol-resistant and -sensitive tumor cell lines
- Experiment Description: Matched taxol-resistant and -sensitive tumor cell lines (summary)
- Format: cell-based
- Experimental Context: Homo sapiens; all three matched taxol-resistant and -sensitive tumor cell lines
Metric Name: EC50

Looking up Cc1csc(-c2nnc(Nc3ccc(Oc4ncccc4-c4ccnc(N)n4)cc3)c3ccccc23)c1 [AMG 900] , I see its EC50 listed as < 2 nM

###

- Test system: MDR tumor cell lines expressing either P-gp or BCRP
- Experiment Description: p-histone H3 / polyploidy in MDR tumor cell lines (summary)
- Type: cell-based
- Experimental Context: Homo sapiens; all cell lines tested irrespective of P-gp or BCRP status; read-out: IC50 or EC50 values (p-histone H3 inhibition or polyploidy)
- Method: All high-content cell assays were performed on an ArrayScan VTi HCS Reader (Cellomics). Tumor cell lines were treated with AMG 900, AZD1152, MK-0457, or PHA-739358 (concentration range varied based on potency). The cells were prepared for intracellular staining with an anti-p-histone H3 Ser^10 antibody as previously described (1). […] The cellular levels of p-histone H3 were analyzed using Target Activation V2 algorithm (Cellomics) to determine the percentage of positive cells. […]
Metric Name: IC50

Just so you know, measured IC50 for Cc1csc(-c2nnc(Nc3ccc(Oc4ncccc4-c4ccnc(N)n4)cc3)c3ccccc23)c1 came out at 2 to 3 nM

###

- Tested on: 32 human tumor cell lines
- Experiment Description: Antiproliferative effect across tumor cell line panel (summary)
- Format: cell-based
- Experimental Context: across solid and hematologic tumor cell lines (Tables 1 and 2)
Metric Name: EC50

# EC50 of Cc1csc(-c2nnc(Nc3ccc(Oc4ncccc4-c4ccnc(N)n4)cc3)c3ccccc23)c1 = 1 to 5 nM

###

- Test system: U266-B1
- Experiment Description: Multiparameter cell cycle DNA content assay (flow cytometry)
- Assay type: cell-based
- Experimental Context: Homo sapiens; U266-B1, Multiple Myeloma; 48 hours without compound withdrawal; read-out: EC50 (+4N DNA content endpoint)
Metric Name: EC50 (nM)
State just the number; it will be interpreted in nM.

Field EC50 (U266-B1), entry Cc1csc(-c2nnc(Nc3ccc(Oc4ncccc4-c4ccnc(N)n4)cc3)c3ccccc23)c1 : 2

###

- Tested on: RPMI8226
- Experiment Description: ≧4N DNA content assay (flow cytometry)
- Type: cell-based, human
- Experimental Context: RPMI-8226**, Multiple Myeloma, P-gp− and/or BCRP+; read-out: Cellular EC50
- Protocol: Tumor cells were treated with AMG 900, AZD1152, MK-0457, or PHA-739358 (range concentration varied based on potency) for 24 hours and processed for cell-cycle analysis (DNA staining only) as previously described (1). Cells were analyzed on a LSRII flow cytometer using BD FACS Diva software. The concentration-response curves and corresponding EC50 values were calculated using the percentage of cells with ≧4N DNA content versus the DMSO control.
Metric Name: pEC50
pEC50 (log units): -log10 of the concentration in mol/L.

Input Cc1cc(Nc2cc(N3CCN(C)CC3)nc(Sc3ccc(NC(=O)C4CC4)cc3)n2)n[nH]1 . Output pEC50: 6.79

###

- System: T47D
- Experiment Description: Antiproliferative assay (ArrayScan VTi)
- Type: cell-based
- Experimental Context: Homo sapiens; T47D (Breast); 24 h treatment, then 48 h without compound
Metric Name: pEC50
Reminder that pEC50 means the negative base-10 logarithm of the concentration expressed in mol/L.

Field pEC50 (system: T47D) for entry Cc1csc(-c2nnc(Nc3ccc(Oc4ncccc4-c4ccnc(N)n4)cc3)c3ccccc23)c1 [AMG 900] = 8.30

###

- Tested on: MDA-MB-231 PTX paclitaxel resistant
- Experiment Description: p-histone H3 fluorescence-based cell imaging assay
- Parameters: species or system human
- Experimental Context: Homo sapiens; MDA-MB-231 PTX paclitaxel resistant, P-gp +
Here the recorded IC50 is given for each entry.

>  <Compound>
CCN(CCCOc1ccc2c(Nc3cc(CC(=O)Nc4cccc(F)c4)n[nH]3)ncnc2c1)CCOP(=O)(O)O [AZD1152]

>  <Measurement Target>
MDA-MB-231 PTX paclitaxel resistant

>  <IC50>
> 500 nM

$$$$
>  <Compound>
CO[C@@H](C(=O)N1Cc2n[nH]c(NC(=O)c3ccc(N4CCN(C)CC4)cc3)c2C1)c1ccccc1 [PHA-739358]

>  <Measurement Target>
MDA-MB-231 PTX paclitaxel resistant

>  <IC50>
> 1250 nM

$$$$

Shift focus to the following entry.
Measured IC50 of Cc1csc(-c2nnc(Nc3ccc(Oc4ncccc4-c4ccnc(N)n4)cc3)c3ccccc23)c1 [AMG 900] : 3 nM

###

- Tested on: RPMI8226
- Experiment Description: ≧4N DNA content assay (flow cytometry)
- Format: cell-based, human
- Experimental Context: Homo sapiens, RPMI-8226; RPMI8226, BCRP +; 24 hours; read-out: ≧4N DNA Content assay, EC50 value
pEC50: −log10 of the molar value.
Metric Name: pEC50

[1] Cc1csc(-c2nnc(Nc3ccc(Oc4ncccc4-c4ccnc(N)n4)cc3)c3ccccc23)c1
[2] CCN(CCCOc1ccc2c(Nc3cc(CC(=O)Nc4cccc(F)c4)n[nH]3)ncnc2c1)CCOP(=O)(O)O
Query block: Sorting ascending by pEC50, which comes first: 1 or 2 ? Respond using the label that marks the chosen record.
Result block: 2
(2: 6.06, 1: 8.52)

###

- Test system: MES-SA-Dx5 doxorubicin resistant
- Experiment Description: p-histone H3 fluorescence-based cell imaging assay
- Design: species or system human
- Experimental Context: MES-SA Dx5*, Uterine, P-gp+; read-out: Cellular EC50
pEC50: −log10 of the molar value.
Metric Name: pEC50

Please fill in: pEC50 reported for Cc1cc(Nc2cc(N3CCN(C)CC3)nc(Sc3ccc(NC(=O)C4CC4)cc3)n2)n[nH]1 = < 5.90

###

- Tested on: MDA-MB-231 PTX paclitaxel resistant
- Experiment Description: p-histone H3 fluorescence-based cell imaging assay
- Parameters: species or system human
- Experimental Context: MDA-MB-231 PTX paclitaxel resistant, P-gp +
Metric Name: pIC50
pIC50 (log units): -log10 of the concentration in mol/L.

Please fill in: pIC50 reported for Cc1cc(Nc2cc(N3CCN(C)CC3)nc(Sc3ccc(NC(=O)C4CC4)cc3)n2)n[nH]1 = 6.56
